# IC50 values compiled below
Target: full-length beta-Catenin (Uniprot ID P35222) (Homo sapiens)
Construct: 10 nM full-length beta-Catenin (Uniprot ID P35222)
Sequence (P35222 1-781): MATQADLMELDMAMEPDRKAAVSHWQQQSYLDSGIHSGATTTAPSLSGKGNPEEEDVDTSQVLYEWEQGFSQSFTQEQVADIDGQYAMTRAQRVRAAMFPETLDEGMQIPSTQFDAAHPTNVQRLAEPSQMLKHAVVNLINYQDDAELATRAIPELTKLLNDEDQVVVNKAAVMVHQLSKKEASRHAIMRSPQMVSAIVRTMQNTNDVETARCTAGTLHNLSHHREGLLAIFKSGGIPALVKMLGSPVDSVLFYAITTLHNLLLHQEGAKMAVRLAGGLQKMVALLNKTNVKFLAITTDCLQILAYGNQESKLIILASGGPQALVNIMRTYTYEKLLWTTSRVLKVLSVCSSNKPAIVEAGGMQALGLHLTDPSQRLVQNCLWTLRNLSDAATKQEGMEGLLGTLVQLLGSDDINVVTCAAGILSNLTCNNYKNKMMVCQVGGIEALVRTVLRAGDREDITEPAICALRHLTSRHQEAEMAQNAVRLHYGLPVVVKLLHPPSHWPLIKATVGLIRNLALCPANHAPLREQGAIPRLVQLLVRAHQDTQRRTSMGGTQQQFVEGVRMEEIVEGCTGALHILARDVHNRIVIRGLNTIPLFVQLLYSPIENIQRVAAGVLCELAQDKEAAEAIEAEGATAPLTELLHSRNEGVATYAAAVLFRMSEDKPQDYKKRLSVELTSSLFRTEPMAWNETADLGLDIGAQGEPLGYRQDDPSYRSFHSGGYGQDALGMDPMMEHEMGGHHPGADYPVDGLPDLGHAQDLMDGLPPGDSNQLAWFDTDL
Assay: Fluorescence polarization IC50 (beta-catenin / 5FAM-TCF4 10-53 competition)
Type: binding
Conditions: Table E2-1; read-out: beta-Catenin FP IC50
Respond with the bare value in µM.

Look over these answered cases.
[
  {
    "compound": "CC[C@H](C)[C@@H]1NC(=O)[C@H](CC(=O)O)NC(=O)[C@]2(CC=CCCCC3(CCCC=CCOC(=O)N(C)CCC[C@@](C)(C(=O)N[C@@H](Cc4ccccc4)C(=O)N[C@@H](Cc4c[nH]c5ccccc45)C(=O)N[C@@H](Cc4c[nH]cn4)C(N)=O)NC(=O)[C@H](CCC(N)=O)NC(=O)[C@H](Cc4ccccc4)NC(=O)[C@H](C)NC(=O)[C@H](C)NC(=O)[C@H](CC(=O)O)NC(=O)[C@H](CC(=O)O)NC3=O)NC1=O)CCCN2C(C)=O (stereo partly drawn) [I-188]",
    "system.tested": "full-length beta-Catenin (Uniprot ID P35222) (Homo sapiens)",
    "IC50 (µM)": 1.6
  },
  {
    "compound": "CC[C@H](C)[C@H](NC(=O)[C@H](CC(=O)O)NC(=O)[C@H](C)NC(C)=O)C(=O)N[C@]1(C)CCN(C)C(=O)OCC=CCCCCC[C@@](C)(C(=O)N[C@@H](Cc2ccccc2)C(=O)N[C@@H](Cc2c[nH]c3ccccc23)C(N)=O)NC(=O)[C@H](CCC(N)=O)NC(=O)[C@H](Cc2ccccc2)NC(=O)[C@H](C)NC(=O)[C@H](C)NC(=O)[C@H](CCC(=O)O)NC(=O)[C@H](CC(=O)O)NC1=O",
    "system.tested": "full-length beta-Catenin (Uniprot ID P35222) (Homo sapiens)",
    "IC50 (µM)": 2.77
  }
]

Lookup: Field request: IC50 | item: CC(=O)N1CCC[C@]12CC=CCCCC1(CCCC=CCCCCCC[C@@](C)(C(=O)N[C@@H](Cc3ccccc3C)C(=O)N[C@@H](Cc3csc4ccccc34)C(=O)N[C@@H](CCC(N)=O)C(N)=O)NC(=O)[C@H](C)NC(=O)[C@H](Cc3ccccc3)NC(=O)[C@H](C)NC(=O)[C@H](C)NC(=O)[C@H](CC(=O)O)NC(=O)[C@H](CC(=O)O)NC1=O)NC(=O)[C@H](C)NC(=O)[C@H](CC(=O)O)NC2=O (stereo partly drawn)
Found: 0.177
